- Tested on: TSSK3
- Cond: concentration: 1 μM, replicates: in singlicate; n = 1;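 further: KINOMEscan kinase panel screen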
Endpoint Name: %Inh (%)
Field: numeric (%). Do not append units.

COc1ccc(CSc2nnc(-c3ccc4nccn4c3)o2)cc1C(F)(F)F    1

Entry under review: O=C(Nc1n[nH]c2cc(-c3ccsc3)ccc12)C1CC1 [SB-732932] . Reported %Inh?
27

Entry under review: COc1ccc(CSc2nnc(-c3ccc4ncsc4c3)o2)cc1C(F)(F)F . Reported %Inh?
0

Entry under review: CS(=O)(=O)CCNCc1nc(-c2ccc3ncnc(Nc4ccc5c(cnn5Cc5ccccc5)c4)c3c2)cs1.Cl.Cl [GW569716] . Reported %Inh?
1

Entry under review: COc1ccc(Nc2nccc(NCCNC(=O)Nc3cc(C)ccc3C)n2)cc1 [GSK1379899] . Reported %Inh?
7

Entry under review: Cc1c(Cn2c3ccccc3n3c(=O)cc(N4CCOCC4)nc23)cccc1C(F)(F)F [GSK2306394] . Reported %Inh?
0

###

- Tested on: SBK1
- Cond: concentration: 1 μM, replicates: in singlicate; n = 1
Endpoint Name: %Inh (%)
Field: numeric (%). Do not append units.

COc1ccc(Nc2nccc(N3CCC(NC(=O)C(C)c4ccc(Cl)cc4)C3)n2)cc1 (stereo not drawn) [GSK1379735]    0
COc1cccc(CNC(=O)NC2CCN(c3ccnc(Nc4ccc(F)cc4)n3)C2)c1 (stereo not drawn) [GSK1379723]    22
O=C(Nc1n[nH]c2nc(-c3cccs3)c(Br)cc12)C1CC1 [SB-735297]    11
Cn1cncc1C(=O)NC1CCN(c2ccnc(Nc3ccc(F)cc3)n2)C1 (stereo not drawn) [GSK1379717]    16
CNc1nc(-c2ccc3c(N)n[nH]c3c2)cc(N2C[C@@H](C(=O)NC3CCCCC3)OC[C@H]2C)n1 [GSK2375584]    0

For the next question, use this compound.
Entry under review: Fc1ccc(-c2nc3n(c2-c2ccncc2)CCS3)cc1 [GI98581] . Reported %Inh?
21

###

- System: p38-delta
- Cond: concentration: 1 μM, replicates: in singlicate; n = 1
Recorded %Inh, one value per entry.
Field: numeric (%). Do not append units.

O=C(Nc1n[nH]c2nc(-c3cccs3)c(Br)cc12)C1CC1 [SB-735297]    0
COc1ccc(CSc2nnc(-c3ccc4ncsc4c3)o2)cc1C(F)(F)F    0
CC(=O)c1c(C)c2cnc(Nc3ccc(N4CCNCC4)cn3)nc2n(C2CCCC2)c1=O    22

Entry under review: CNc1nc(-c2ccc3c(N)n[nH]c3c2)cc(N2C[C@@H](C(=O)Nc3ccccc3)CC[C@H]2C)n1 [GSK2298859] . Reported %Inh?
0

Entry under review: c1ccc(-c2ccnc3[nH]ccc23)cc1 [SB-693578] . Reported %Inh?
39

Entry under review: COc1ccc(Nc2nccc(NCCNC(=O)Nc3cc(C)ccc3C)n2)cc1 [GSK1379899] . Reported %Inh?
21

Entry under review: COc1ccc(Nc2nccc(-c3ccc(NC(=O)c4cc5cc(F)ccc5[nH]4)cc3)n2)cc1 [GSK1229496] . Reported %Inh?
43

###

Recorded %Inh, one value per entry.
- Tested on: CSNK2A1
- Cond: concentration: 1 μM, replicates: in singlicate; n = 1
Field: numeric (%). Do not append units.

CCn1c(-c2ccccc2)nc2cnccc21 [SB-733416]    0
O=C1NC(=O)C(c2ccc(Cl)cc2)=C1Nc1ccc(O)cc1 [SB-340867]    0
NS(=O)(=O)c1cccc(N/C=C2\C(=O)Nc3ccc(S(=O)(=O)Cc4c(Cl)cccc4Cl)cc32)c1 [GSK398099]    0

Entry under review: COc1cccc(C2=C(Nc3cc(Cl)c(O)c(Cl)c3)C(=O)NC2=O)c1 [SB-390767] . Reported %Inh?
0

###

- Test system: MYLK2
- Cond: concentration: 1 μM, replicates: in singlicate; n = 1
Criterion: %Inh strictly under 4%. Met: TRUE. Not met: FALSE.

CNc1nc(-c2ccc3c(N)n[nH]c3c2)cc(N2C[C@@H](C(=O)Nc3ccccc3)CC[C@H]2C)n1 [GSK2298859]    FALSE

Threshold test, %Inh < 4%: c1ccc(-c2ccnc3[nH]ccc23)cc1 [SB-693578]
TRUE

Threshold test, %Inh < 4%: CNc1cc(-c2ccc3c(N)n[nH]c3c2)nc(N)n1 [GSK2224810]
FALSE

Threshold test, %Inh < 4%: COc1ccc(Nc2nccc(N3CCC(NC(=O)C(C)c4ccc(Cl)cc4)CC3)n2)cc1 (stereo not drawn) [GSK1379812]
FALSE

Threshold test, %Inh < 4%: Cc1cnc(N)c(/C=C/c2cncc(C(=O)NCCc3ccc(Cl)cc3Cl)c2)c1.Cl [GSK190937]
TRUE

###

- Test system: EPHB3
- Cond: concentration: 1 μM, replicates: in singlicate; n = 1
Recorded %Inh, one value per entry.
Field: numeric (%). Do not append units.

Observe how each entry below is paired with its result.
Cc1ccc(NC(=O)Nc2ccc(Cl)c(C(F)(F)F)c2)cc1-c1ccc(C(=O)Nc2ccncc2)cc1 [GSK1398470]    19
Cn1cncc1C(=O)NC1CCN(c2ccnc(Nc3ccc(F)cc3)n2)C1 (stereo not shown) [GSK1379717]    0
Nc1ncnc2occ(-c3ccc4c(c3)CCN4C(=O)Cc3cc(F)ccc3F)c12 [GSK2645446]    0

For the next question, use this compound.
Entry under review: COc1ccc(CSc2nnc(-c3ccc4nccn4c3)o2)cc1C(F)(F)F . Reported %Inh?
7

###

- Test system: AMPK-alpha1
- Construct: gene PRKAA1
- Cond: concentration: 1 μM, replicates: in singlicate; n = 1
Endpoint Name: %Inh (%)
Field: numeric (%). Do not append units.

CS(=O)(=O)CCNCc1nc(-c2ccc3ncnc(Nc4ccc5c(cnn5Cc5ccccc5)c4)c3c2)cs1.Cl.Cl    0
COc1ccc(Nc2nccc(NCCNC(=O)Nc3cc(C)ccc3C)n2)cc1    0

For the next question, use this compound.
Return %Inh measured with AMPK-alpha1 given this compound: Fc1ccc(-c2nc3n(c2-c2ccncc2)CCS3)cc1
14

###

Recorded %Inh, one value per entry.
- Test system: ARK5
- Construct: gene NUAK1
- Cond: concentration: 1 μM, replicates: in singlicate; n = 1
Field: numeric (%). Do not append units.

Observe how each entry below is paired with its result.
COc1ccc(Nc2nccc(N3CCC(NC(=O)c4cc5ccccc5s4)C3)n2)cc1 (centres unmarked) [GSK1379738]    19
Cc1ccc(NC(=O)c2ccc(Cl)cc2)cc1-c1ccc(C(=O)Nc2ccncc2)cc1 [GSK1398467]    6
Cc1ccc(NC(=O)Nc2ccccc2)cc1-c1ccc(C(=O)Nc2ccncc2)cc1 [GSK1398471]    13
Cc1ccc(NC(=O)Nc2ccccc2F)cc1-c1ccc(C(=O)Nc2ccncc2)cc1 [GSK1398477]    8
CS(=O)(=O)CCNCc1nc(-c2ccc3ncnc(Nc4ccc5c(cnn5Cc5ccccc5)c4)c3c2)cs1.Cl.Cl [GW569716]    0

Entry under review: COc1ccc(Nc2nccc(N3CCC(NC(=O)C(C)c4ccc(Cl)cc4)CC3)n2)cc1 (centres unmarked) [GSK1379812] . Reported %Inh?
20

Entry under review: CC(C)c1cc(-c2ccc3c(N)n[nH]c3c2)nc(N)n1 [GSK2250882] . Reported %Inh?
0

Entry under review: O=C1NC(=O)C(c2ccc(Cl)cc2)=C1Nc1cccc(Cl)c1 [SB-317651] . Reported %Inh?
0

Entry under review: COc1ccc2cc(-c3nc(-c4ccccc4C(C)C)[nH]c3-c3ccncc3)ccc2c1 [SB-660566] . Reported %Inh?
18

Entry under review: Cc1cnc(N)c(/C=C/c2cncc(C(=O)NCCc3ccc(Cl)cc3Cl)c2)c1.Cl [GSK190937] . Reported %Inh?
1

Entry under review: Cc1ccc(NC(=O)Nc2ccc(Cl)c(C(F)(F)F)c2)cc1-c1ccc(C(=O)Nc2ccncc2)cc1 [GSK1398470] . Reported %Inh?
14

Entry under review: CC(=O)c1c(C)c2cnc(Nc3ccn(C)n3)nc2n(C2CCCC2)c1=O . Reported %Inh?
0

Entry under review: CNC(=O)c1ccc(C)c(-n2c(C)cc(OCc3ccc(F)cc3F)c(Br)c2=O)c1 . Reported %Inh?
0

Entry under review: CCc1ccc(-c2ccc3c(c2)-c2n[nH]cc2S(=O)(=O)N3C)cc1 . Reported %Inh?
13

###

- Tested on: PRKCI
- Cond: concentration: 1 μM, replicates: in singlicate; n = 1
Endpoint Name: %Inh (%)
Field: numeric (%). Do not append units.

O=C1NC(=O)C(c2ccc(Cl)cc2)=C1Nc1cccc(Cl)c1 [SB-317651]    6
O=c1cc(N2CCOCC2)nc2n(Cc3ccccc3F)ccn12 [GSK2297428]    1
Cc1ccc(NC(=O)c2ccc(Cl)cc2)cc1-c1ccc(C(=O)Nc2ccncc2)cc1 [GSK1398467]    5

Return %Inh measured with PRKCI given this compound: FC(F)(F)c1ccccc1-c1cc(-c2c[nH]nc2-c2ccccn2)ccn1 [GW679396]
32

Return %Inh measured with PRKCI given this compound: COc1ccc(Nc2nccc(N3CCC(NC(=O)c4cc5ccccc5s4)C3)n2)cc1 (stereo not drawn) [GSK1379738]
15

Return %Inh measured with PRKCI given this compound: CCn1c(-c2ccccc2)nc2cnccc21 [SB-733416]
8

Entry source: paper PMC5540273
